test: yeast display, Sf9 membrane polyspecificity reagent, FACS + sequencing; frameworks hold sequencing errors
Parameter Measured: polyreactivity (PSR sort gate)

Some solved cases for reference:
sequence_chain=QVQLVESGGGLVQAGGSLRLSCAASGSTFDRYAMGWYRQAPGKERELVAAITGSGGRTYYADSVKGRFTISRDNAKNTVYLQMNSLKPEDTAVYYCAARRSGYYLYSVDYWGQGTQVTVST recorded_value="high polyreactivity"
sequence_chain=QVQLVESGGGLVQAGGSLRLSCAASGRSFSKYAMGWYRQAPGKERDLVAGISRSGGSTYYADSVKGRFTISRDNAKNSVYLQMNSLKPEDTAVYYGAAVRRDYDDVYTEYWGQGTQVNVSS recorded_value="high polyreactivity"
sequence_chain=QVQLVESGGGLVQAGGSLRLSCAASGRTFYSYAMGWSRQAPGKERELVAAISRAGGTYYADSVKGRFTLSRDNAKNTVYLQMNSLKPEDTAVYYCAARQAVYGLRSDFYYWGQGTQVTVSS recorded_value="high polyreactivity"
sequence_chain=QVQLVESGGGLVQAGGSLRLSCAASGGTFDINDMGWYRQAPGKEREFVAAIDWSGGNTYYADSVKGRFIISRDNAKNTVYLQMNSLKPEDTAVYYCNARRKRSYDYWGQGTQVTVSS recorded_value="low polyreactivity"
sequence_chain=QVQLQETGGGLFQAGVSLRLSCATSGSIFWGNAMGWYRQSPGKDRELVAAISWGGGRTYYADSVKGRFTISRDNAKITVYLQINSLKPEDTAVYSCNTRYPYVVSTGYDYWGQGTQVTVSS recorded_value="high polyreactivity"

For this sequence ( `QVQLVESGGGLVQAGGSLRLICAASGSTSWINAMGWYIQAPGKERELVAAISGRDGSTNYADSVKGRFTISRDNAKNTVYLLMNSLKPEDTAVYYCNANGRRFNRYGGDYWGLGTQVTVSS` ), measured polyreactivity (PSR sort gate) is high polyreactivity

Value of polyreactivity (PSR sort gate) reported for the sequence `QVQLVESGGGLVQAGGSLRLSCAASGRIFSGYAMGWDRQAPGKERELVAAITSRSGSTYYADSVKGRFTISRDNAKNTVYLQMNSLKPEDTAVYYCAKRLYKPGNVFYSVDQSDYWGQGTQVTVSS` is low polyreactivity

Looking up `QVQLVESGGGLVQAGGSLRLSCAASGRTFWAYAMGWYRQAPGKERELVAAITASGTRTYYADSVKGRFTISRDNAKNTVYLQMNSLKPEDTAVYYCAAERIWWAHAYPTYVANDYWGQGTQVTVSS` , I found its polyreactivity (PSR sort gate) recorded as high polyreactivity

So for `QVQLVESGGGLVQAGGSLRLSCAASGSTFRYYVMGWYRQAPGKERELVAAISAGGGRTYYADSVKGRFTISRDNSKNTVYLQMNSLKPEDTAVYYCAAKSVTPYWQEYEYDYWGQGTQVTVSS` , the logged polyreactivity (PSR sort gate) turned out to be high polyreactivity

response.value for `QVQLVESGGGLVQAGGSLRLSCAASGRTFARYAMGRYRQAPGKERELVAAITRGSGSTYYADSVKGRFTISRDNAKNTVYLQMNSLKTEDTAVYFCAKRSRGLKFDYWGQGTQVTVSS` (field: polyreactivity (PSR sort gate)) = high polyreactivity

Looking up `QVQLVESGGGLVQAGGSLRLICAASGSTFNGNDRGWYRQAPGKERELVATISDGGRTYYADSVKGRFTISRDNAKITVYLQMNSLKPEDTAVYYCAAPVYVPRAWFYYWGQGTQVTVSS` , I found its polyreactivity (PSR sort gate) recorded as low polyreactivity

// recorded polyreactivity (PSR sort gate) for `QVQLVESGGGLVQAGGSLRLSCAASGRIFWYYAMGWYRQAPGKERELVAAITRSGASTYYADSVKGRFTISRDNAKNTVYLQMNSLKPEDTAVYYCAARGRWNVPARRDYWGQGTQVTVSS` : high polyreactivity
